Target: T1, recombinant human OX40/His fusion protein (Novoprotein, CB17) (human, UniProt P43489 29-216)
T1 construct: Bought protein
T1 sequence: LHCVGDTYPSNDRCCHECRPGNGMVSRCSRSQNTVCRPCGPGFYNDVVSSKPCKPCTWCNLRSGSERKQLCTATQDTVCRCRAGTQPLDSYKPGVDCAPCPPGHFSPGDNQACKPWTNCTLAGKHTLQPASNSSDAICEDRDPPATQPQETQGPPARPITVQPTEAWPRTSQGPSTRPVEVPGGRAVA
Test: BLI (Octet RED96), antibody on AHC sensor, OX40/His as analyte, test group 4
Examples of binders with documented koff follow.
endpoint: koff (s⁻¹)

| binder | endpoint | value-observed |
| --- | --- | --- |
| HuEM1007-044-16 (antibody, human IgG1, kappa, L234A L235A, V domains shown, Humanized anti-OX40, human IgG1 LALA / kappa; parental antibody of FIT1014-20a; also called HuEM1007-44-16; parental OX40 antibody) VH: EVQLQQSGAEVKKPGSSVKVSCKASGHAFSSSWMNWVKQRPGKGLEWIGRIYPGDEITNYNAKFKDKATLTADKSTSTAYMELSSLRSEDTAVYYCARDLLMPYWGQGTLVTVSS VL: DIVMTQTPLSLPVTPGEPASISCRSSKSLLYSNAITYLYWYLQKPGQSPQLLIYQMSNLAPGVPDRFSSSGSGTDFTLKISRVEAEDVGVYYCAQNLELPFTFGQGTKLEIKR | koff | 0.000352 |
| EM1007-mAb044c-15 (antibody, human IgG1, kappa, L234A L235A, V domains shown) VH: EVQLVQSGAEVKKPGSSVKVSCKASGGTFSSSWMNWVRQRPGKGLEWMGRIYPGDEITNYNAKFKDRVTITADKSTSTAYMELSSLRSEDTAVYYCARDLLMPYWGQGTLVTVSS VL: DIVMTQTAFSNPVTLGTSASISCRSSKSLLYSNAITYLYWYLQKPGQSPHLLIYQMSNLAPGVPDRFSSSGSGTDFTLRISRVEAEDVGIYYCAQNLELPFTFGSGTKLEIKR | koff | 0.000949 |
